test: Metabolic stability in rat liver microsomes assessed as intrinsic clearance at 1 uM preincubated for 60 mins followed by NADPH addition and measured after 60 mins by LC-MS/MS analysis; type: ADME, Microsome; conditions: time 120 min, read-out: CLH
endpoint: microsomal CLint at 1 µM (µL/min/mg)

C[C@@H](Nc1ccc(-c2cncc(S(C)(=N)=O)c2)cn1)c1ccc(F)cc1 (stereo not given in full); 2
C[C@@H](Nc1cnc(-c2cncc(CC(F)F)c2)cn1)c1ccc(F)cc1; 16
C[C@@H](Nc1ccc(-c2cncc(C(F)(F)F)c2)cn1)c1ccc(F)cc1; 5.2
CCc1cncc(-c2cnc(N[C@H](C)c3ccc(F)cc3)cn2)c1; 78
C[C@@H](Nc1ncc(-c2cncc(CC(F)(F)F)c2)nn1)c1ccc(F)cc1; 6.4
Cc1cncc(-c2ccc(N[C@H](C)c3ccc(F)cc3)nc2)c1; 234
C[C@@H](Nc1ccc(-c2cncc(S(C)(=O)=O)c2)cn1)c1ccc(F)cc1; 3.8
C[C@@H](Nc1ccc(-c2ccc3oc(=O)n(C)c3c2)cn1)c1ccc(F)cc1; 3.9
CCc1cncc(-c2ccc(N[C@H](C)c3ccc(F)cc3)nc2)c1; 48
C[C@@H](Nc1ccc(-c2cncc(C3CC3)c2)cn1)c1ccc(F)cc1; 10
